Tested on: Saccharomyces cerevisiae
Assay Protocol: protein stability index of tFT-peptide fusion in wild type (PSI (0-1 scale)); higher = more stable (slower turnover)
Details: genetic background: wild type
Assign protein stability index to each entry below.
One number for each entry.

Dear colleague, could you send me protein stability index for each of the items below? Thanks.
1. RLIQPLGVQFLN
2. FSMRWEFRYWVN

[out]
1: 0.0859; 2: 0.0711

----------
Test system: Saccharomyces cerevisiae
Assay Protocol: protein stability index of tFT-peptide fusion (C-terminal peptide) (PSI (0-1 scale)); higher = more stable (slower turnover)
Details: genetic background: wild type; temperature: 30 C
Parameter: protein stability index
One number for each entry.

Here is how some sequences turned out for protein stability index.
VGEVAGRWCGRG ... 0.7
KERYKNHGQKAS ... 0.683
HVSINERFKSMY ... 0.717
LPPPSPPPPPSP ... 0.68
GKRKEKLEQTAQ ... 0.688
GKEGKGEAGIGE ... 0.686
RGNSPPPSSPPL ... 0.687
RRADGASLNNSV ... 0.697

# map each sequence to its protein stability index
1. TLIEWSAKGCRR
2. CPGTSLVLPPLL
3. WGAGGGGWGGGV

[out]
0.693
0.688
0.685

----------
I'd appreciate it if you could supply protein stability index values for the items below.
System: Saccharomyces cerevisiae
Assay Protocol: protein stability index of tFT-peptide fusion (C-terminal peptide) (PSI (0-1 scale)); higher = more stable (slower turnover)
Details: genetic background: wild type; temperature: 37 C

Below, 5 sequences whose answers are already recorded.
LLCLAVVLWFVV ... 0.336
EMSIISVLRVIS ... 0.395
VRICVVLRVCWW ... 0.18
DRLRSGLSLLLA ... 0.583
GYAFPPPHRVRT ... 0.702

Report protein stability index for every entry below.
1. KKKQAILRTLKI
2. SGPTIRRRLFVH
3. FVEFCFWCFWVV
4. LSFFFWFIFSLC
5. FGFFDIKLPVVA
6. HMVSWTVVRSLM
7. FSALAPTPLLPL

[out]
1. 0.417
2. 0.347
3. 0.499
4. 0.443
5. 0.518
6. 0.258
7. 0.706

[in] Tell me the measured protein stability index of `GSVLWISCLIFC` , please.
[out] 0.347

----------
System: Saccharomyces cerevisiae
Assay Protocol: protein stability index of tFT-peptide fusion (C-terminal peptide) (PSI (0-1 scale)); higher = more stable (slower turnover)
Details: genetic background: wild type; temperature: 30 C
Parameter: protein stability index
Give bare numbers.

PLLPPLPPPLPP ... 0.692
PPPPSPGPASPA ... 0.716

Your task in this section: give protein stability index for each listed record.
1. VSRACYTPPQFY
2. GWTQFVLHSMFG
3. PTRGLTARPFLW
4. FLAFSYIRLLFF
5. VSGVVHRVVVSR
6. VLCIYKLSQVRL

[out]
1. 0.68
2. 0.72
3. 0.62
4. 0.237
5. 0.7
6. 0.654

----------
System: Saccharomyces cerevisiae
Assay Protocol: protein stability index of tFT-peptide fusion (C-terminal peptide) (PSI (0-1 scale)); higher = more stable (slower turnover)
Details: genetic background: wild type; temperature: 30 C
Parameter: protein stability index
Numbers only.

Example entries and their recorded answers appear below.
RLPHPPARVFSI ... 0.691
RGLWAAIPRKCT ... 0.358

Give me protein stability index for each of these sequences, listed below.
1. PVGEEPRPRNVR
2. PTLPTPAARPGR
3. VFLTASVLVAPF
4. INILVIWRKNHV

[out]
1: 0.674; 2: 0.696; 3: 0.575; 4: 0.129

State recorded protein stability index for all listed sequences.
1. CSEGSSFVDKRG
2. CAVLGGGGVWGA
3. SAELGHTNLCRS

[out]
1: 0.594; 2: 0.596; 3: 0.678

Could I get protein stability index for every one of these entries?
1. PLPPPSGLLSRL
2. AGYEEWVRDARV

[out]
1: 0.902; 2: 0.73

----------
Test system: Saccharomyces cerevisiae
Assay Protocol: protein stability index of tFT-peptide fusion (C-terminal peptide) (PSI (0-1 scale)); higher = more stable (slower turnover)
Details: genetic background: wild type; temperature: 30 C
Parameter: protein stability index
Answers are plain numbers.

// worked examples, protein stability index included
TPLLPPSPPPSR ... 0.277
RCSLFAKQVVSL ... 0.43
FTRLDYKRIKIV ... 0.0685
SPTRTCTAIRTP ... 0.676
VFGCHHLEVSVC ... 0.241
QYRLMQKKIVNI ... 0.147
SVRGGSFLVHLC ... 0.168
FLPPVHRCFSIF ... 0.193

Hi team, please reply with protein stability index for each item in this list.
1. PFYQSGGLVVVV
2. PVTAVYFVLYIW
3. RFLACSIRYLVY
4. FVVFLLFFMLYH
5. LSPLPSPLILVV
6. RVYLLGLFVRSG
7. GVAFGLLVWLLG

[out]
[0.464, 0.167, 0.277, 0.305, 0.191, 0.371, 0.326]

Would you mind giving protein stability index for every sequence in the list below?
1. SRGGVFYVRIHS
2. PGVWVVILRWWV
3. SLIFLLVLILSL
4. RTKIKKKIMKNI
5. WVVVARIFSVFF
6. SWCLLVWIGGVF

[out]
1. 0.279
2. 0.0841
3. 0.347
4. 0.532
5. 0.35
6. 0.264

----------
System: Saccharomyces cerevisiae
Assay Protocol: protein stability index of tFT-peptide fusion (C-terminal peptide) (PSI (0-1 scale)); higher = more stable (slower turnover)
Details: genetic background: wild type; temperature: 30 C
Parameter: protein stability index
Give bare numbers.

Example results:
PRGPPTPPLTSP ... 0.669
RVSWGRTGTLRN ... 0.681
SCGWWWGGGAGG ... 0.656
RPPAVVHLQPFY ... 0.702
GGDDKREPGGAR ... 0.66

Quick request: protein stability index for each listed item, please.
1. GAGGAGAGAGGG
2. LHGASLCVPPSP
3. GVDPVGVLFCGA
4. IGWFGRCGCCCW
5. EGRSVWVVGRAV
6. IIPAFPFAFLAF
7. MNLAGRRAVEEW

[out]
1. 0.639
2. 0.521
3. 0.656
4. 0.714
5. 0.652
6. 0.489
7. 0.659

[in] So what does the record say about protein stability index for `VGVSLVLPDWDV` ?
[out] 0.693

----------
System: Saccharomyces cerevisiae
Assay Protocol: protein stability index of tFT-peptide fusion (C-terminal peptide) (PSI (0-1 scale)); higher = more stable (slower turnover)
Details: genetic background: das1 deletion; temperature: 30 C
Each entry gets NOT MET if its protein stability index stays under 0.4, and MET if its protein stability index is 0.4 or above.

Check out these entries, answers already filled in.
SSAFFFLLFSLA ... NOT MET
TGGGGRVSLGGG ... NOT MET
LLGGFAAFWRIL ... MET
LWRRSLLLLRCC ... NOT MET
GGGWGGRWGRLC ... MET
LSRELRFVGFYH ... MET

Alright, here's another sequence for you.
[in] Hi team, for `FCCLVLDLEVSG` , is the recorded protein stability index at or above 0.4?
[out] NOT MET

----------
Test system: Saccharomyces cerevisiae
Assay Protocol: protein stability index of tFT-peptide fusion (C-terminal peptide) (PSI (0-1 scale)); higher = more stable (slower turnover)
Details: genetic background: wild type; temperature: 30 C
Parameter: protein stability index
Answers are plain numbers.

Below, 2 sequences whose answers are already recorded.
LSSPTHTPHPPS ... 0.701
KYIKNKKEKTEE ... 0.701

[in] // lookup protein stability index for `RVDTRKQNKNSM`
[out] 0.693

----------
Test system: Saccharomyces cerevisiae
Assay Protocol: protein stability index of tFT-peptide fusion (C-terminal peptide) (PSI (0-1 scale)); higher = more stable (slower turnover)
Details: genetic background: wild type; temperature: 37 C
Label label 1 when protein stability index >= 0.5; otherwise label 0.

RFLACSIRYLVY ... label 0
VMIFYVLGRVWD ... label 1
GGGWGGRWGRLC ... label 0
LGVLVVCFNATY ... label 0

[in] Answer whether protein stability index of `CIFLLMAILSLA` is greater than or equal to 0.5.
[out] label 0

[in] Test whether the sequence `VLVRVIYLLVSG` records protein stability index of 0.5 or higher.
[out] label 0

[in] Given `FFRFCFLLLASS` , state whether its protein stability index is at least 0.5.
[out] label 0

----------
Exercise: state measured protein stability index for each of the sequences provided.
Tested on: Saccharomyces cerevisiae
Assay Protocol: protein stability index of tFT-peptide fusion (C-terminal peptide) (PSI (0-1 scale)); higher = more stable (slower turnover)
Details: genetic background: cdc53-1; temperature: 37 C
Numbers only.

Some solved cases for reference:
SLIFLLVLILSL ... 0.51
LTIYPLTYCFVS ... 0.704
VFCCHSSRFVFA ... 0.679
VCMVLCRWRGLG ... 0.704
GGGWCEMLIVVG ... 0.512

Batch request: protein stability index per item, same order as input.
1. GWLRHGWWRTVG
2. SFPPLPPLPLPP
3. APPSRRLTLRLA
4. PRPSPPLPPPSS

[out]
[0.709, 0.688, 0.696, 0.712]
